Reference source for all entries: patent US20040018971A1

Biological target: HLA-B*0702 (human)
Experiment: competition vs 125I-labeled standard peptide, purified HLA
pIC50: −log10 of the molar value.
Values of pIC50 greater than or equal to 7 map to y; values below map to n.

Reference set (3 entries):
BINDER	ANSWER LABEL
FPKANKEI (8-mer analog of the HER2/neu peptide starting at position 760; same label as the 9-mer in r54) [Her2/neu.760.F1, 8-mer]	y
FPLTSIISI (9-mer analog of the HER2/neu peptide starting at position 649) [Her2/neu.649.F1I9]	n
FPIKWMAL (8-mer analog of the HER2/neu peptide starting at position 884; also called FPIKWMAL) [Her2/neu.884.F1]	y

Okay, next one:
Determine whether measured pIC50 meets or exceeds 7 for FPSGAMPNQI (the label names only F1 though the C-terminus is I) [Her2/neu.701.F1]
n
